Each entry below lists one item and its recorded pIC50 value.
Target: T1, biotinylated recombinant human IL-17A (rhIL-17, R&D Systems #317-ILB) (human, UniProt Q16552 24-155, biotinylated)
T1 construct: IL-17A, human, recombinant; also called Biotinylated IL-17A; source: bought: R&D Systems
T1 sequence (Q16552 24-155): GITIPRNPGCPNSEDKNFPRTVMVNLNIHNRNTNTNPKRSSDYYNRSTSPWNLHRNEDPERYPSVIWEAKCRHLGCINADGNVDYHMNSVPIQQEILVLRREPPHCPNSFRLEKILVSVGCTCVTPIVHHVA
Conditions: both partners purified
pIC50: −log10 of the molar value. Where no end group is shown, it is not given here.

| BINDER | pIC50 |
| --- | --- |
| Ac-IVATMPADLWDWIRA (not fully specified (C-terminus), analogue of peptide 2, A at position 3; made on Rink resin; a C-terminal amide is surmised; source: synthetic peptide) [peptide 15] | 5.24 |
| Ac-IVVTMPADLWDWINA (not fully specified (C-terminus), analogue of peptide 2, N at position 14; made on Rink resin; a C-terminal amide is surmised; source: synthetic peptide) [peptide 28] | 7.59 |
| Ac-IVVTMPADLWAWIRA (not fully specified (C-terminus), analogue of peptide 2, A at position 11; made on Rink resin; a C-terminal amide is surmised; source: synthetic peptide) [peptide 7] | 6.32 |
